Experiment: Plasma pharmacokinetics after single oral dose, phase I; data geometric mean (coefficient of variation), t max median (range)
Type: in vivo, healthy men
Details: male, human, plasma, oral, 5 mg, 5 mg fasted, n = 4; read-out: t 1/2λz (converted)
readout: half-life (h)
Write the answer as a number in h, unit excluded.

Can you share its half-life? I mean this compound: `C[C@@H](N)c1cc(Cl)ccc1Cn1c(=S)[nH]c(=O)c2[nH]ccc21`
37.6

====

Experiment: Plasma pharmacokinetics after single oral dose, phase I; data geometric mean (coefficient of variation), t max median (range)
Assay type: in vivo, healthy men
Settings: male, human, plasma, oral, 45 mg, 45 mg fasted
readout: AUC(0-inf)
The answer should read as a number with its unit following.

# get_value(readout='AUC(0-inf)', item= `C[C@@H](N)c1cc(Cl)ccc1Cn1c(=S)[nH]c(=O)c2[nH]ccc21` )
6.69 µM·h

====

Assay: Plasma pharmacokinetics after single oral dose, phase I; data geometric mean (coefficient of variation), t max median (range)
Format: in vivo, healthy men
Settings: male, human, plasma, oral, 405 mg, 405 mg fasted; read-out: t 1/2λz (converted)
readout: half-life (h)
Numbers only; they are read as h.

Look up half-life for this compound: C[C@@H](N)c1cc(Cl)ccc1Cn1c(=S)[nH]c(=O)c2[nH]ccc21 [AZD4831]
38.1

====

Assay: Plasma pharmacokinetics after single oral dose, phase I; data geometric mean (coefficient of variation), t max median (range)
Type: in vivo, healthy men
Settings: male, human, plasma, oral, 5 mg, 5 mg fasted, n = 4; read-out: Vz/F
readout: Vd/F (L)
Write it as a number; the unit L goes unstated.

Could you share which Vd/F value was measured for `C[C@@H](N)c1cc(Cl)ccc1Cn1c(=S)[nH]c(=O)c2[nH]ccc21` ?
1580

====

Test: Plasma pharmacokinetics after single oral dose, phase I; data geometric mean (coefficient of variation), t max median (range)
Assay type: in vivo, healthy men
Details: male, human, plasma, oral, 45 mg, 45 mg fed; read-out: Vz/F
readout: Vd/F (L)
# number only, unit L dropped from output

Suppose we examine the compound `C[C@@H](N)c1cc(Cl)ccc1Cn1c(=S)[nH]c(=O)c2[nH]ccc21` ; what Vd/F value has been reported?
1940

====

Assay: Plasma pharmacokinetics after single oral dose, phase I; data geometric mean (coefficient of variation), t max median (range)
Assay type: in vivo, healthy men
Details: male, human, plasma, oral, 45 mg, 45 mg fed; read-out: t 1/2λz (converted)
Experimental: Participants fasted overnight for at least 10 hours before dosing. […] Participants resided at the study centre until 48 hours postdose and attended a follow‐up visit 7–10 days after dosing. […] Blood samples were collected only up to 48 hours after dosing for the first cohort; the sampling schedule was amended thereafter to include the later time points. Samples for determination of AZD4831 in plasma were analysed by Covance Laboratories Ltd. (Harrogate, UK). […]
readout: half-life (h)
Numbers only; they are read as h.

Which half-life is listed for C[C@@H](N)c1cc(Cl)ccc1Cn1c(=S)[nH]c(=O)c2[nH]ccc21 [AZD4831] ?
58

====

Test: Plasma pharmacokinetics after single oral dose, phase I; data geometric mean (coefficient of variation), t max median (range)
Type: in vivo, healthy men
Settings: male, human, plasma, oral, 15 mg, 15 mg fasted
Description: Participants fasted overnight for at least 10 hours before dosing. […] Participants resided at the study centre until 48 hours postdose and attended a follow‐up visit 7–10 days after dosing. […] Blood samples were collected only up to 48 hours after dosing for the first cohort; the sampling schedule was amended thereafter to include the later time points. Samples for determination of AZD4831 in plasma were analysed by Covance Laboratories Ltd. (Harrogate, UK). […]
readout: AUC(0-t) (µM·h)
Quick note: give the figure in µM·h, leave out the unit.

State the recorded AUC(0-t) for this entry: `C[C@@H](N)c1cc(Cl)ccc1Cn1c(=S)[nH]c(=O)c2[nH]ccc21`
1.44

====

Experiment: Plasma pharmacokinetics after single oral dose, phase I; data geometric mean (coefficient of variation), t max median (range)
Type: in vivo, healthy men
Details: male, human, plasma, oral, 45 mg, 45 mg fasted, median (range)
readout: Tmax (min)
// note: answer is a bare numeric in min

Would you mind telling me what Tmax value was observed for `C[C@@H](N)c1cc(Cl)ccc1Cn1c(=S)[nH]c(=O)c2[nH]ccc21` ?
30.6

====

Assay: Plasma pharmacokinetics after single oral dose, phase I; data geometric mean (coefficient of variation), t max median (range)
Format: in vivo, healthy men
Settings: male, human, plasma, oral, 135 mg, 135 mg fasted, median (range)
readout: Tmax (min)
Answer format: numeric, min implied, no suffix.

Need Tmax of `C[C@@H](N)c1cc(Cl)ccc1Cn1c(=S)[nH]c(=O)c2[nH]ccc21` , thanks.
44.4

====

Assay: Plasma pharmacokinetics after single oral dose, phase I; data geometric mean (coefficient of variation), t max median (range)
Type: in vivo, healthy men
Conditions: male, human, plasma, oral, 135 mg, 135 mg fasted; read-out: Vz/F
readout: Vd/F (L)
// units = L; emit number, no label

Entry under review: `C[C@@H](N)c1cc(Cl)ccc1Cn1c(=S)[nH]c(=O)c2[nH]ccc21` . Reported Vd/F?
1450
